Form field: CVS-11 neutralizing antibody titer (RFFIT), IU/mg (one value per entry).
SYSTEM NAME: Rabies virus glycoprotein G, Challenge Virus Standard (CVS)-11 strain (Rabies virus, strain CVS-11 (genotype 1 Lyssavirus)) (UniProt O92284)
Sequence (O92284 20-524 limits assumed): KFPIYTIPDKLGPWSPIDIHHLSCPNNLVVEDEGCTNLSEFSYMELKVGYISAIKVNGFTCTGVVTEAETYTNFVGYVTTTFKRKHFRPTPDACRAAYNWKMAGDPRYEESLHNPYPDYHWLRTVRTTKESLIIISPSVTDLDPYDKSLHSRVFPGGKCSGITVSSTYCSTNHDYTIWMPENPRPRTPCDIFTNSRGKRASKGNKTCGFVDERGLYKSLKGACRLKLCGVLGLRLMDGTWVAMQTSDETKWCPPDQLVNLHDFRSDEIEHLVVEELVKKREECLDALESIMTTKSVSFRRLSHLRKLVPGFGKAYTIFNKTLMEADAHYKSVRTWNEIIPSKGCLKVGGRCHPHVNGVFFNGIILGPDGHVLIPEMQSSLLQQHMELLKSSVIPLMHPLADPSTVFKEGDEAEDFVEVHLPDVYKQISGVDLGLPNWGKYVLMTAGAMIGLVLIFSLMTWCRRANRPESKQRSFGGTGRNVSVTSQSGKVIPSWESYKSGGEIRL
ASSAY NAME: cell-based or functional assay
Your answer is read as IU/mg, so omit the unit and give the number.

* LG212F6 (VHH) VHH: EVQLVESGGGLVQPGGSLRLSCAASGFTFGSYDMSWVRQAPGKGSEWVSHINTGGGSTTYADSVKGRFTISRDNAKNTLYLQMSSLKPEDTAVYYCATGLYGGSTDDYWGQGTQVTVSS | 114

Then there is this binder:
q: Looking for the measured CVS-11 neutralizing antibody titer (RFFIT), IU/mg of LG212B12 (VHH) VHH: EVQLVESGGGLVQPGGSLRLSCAASGFTFGNYDMSWVRQAPGKGPEWVSGINTGGSTLYADSVKGRFTISRDNAKNTLYLQMNSLKSEDTAVYYCAKDLYGSTWYTDYWSQGTQVTVSS , can you help?
a: 20

All figures here come from patent US20200123233A1.
